Entry source: ChEMBL document CHEMBL1144028

- Experimental Protocol: Solubility in 0.01 N HCl
- Assay type: physicochemical
- Experimental Setup: 0.01 N HCl; read-out: Solubility
Assay Endpoint: solubility

Below, 2 compounds whose answers are already recorded.
COc1cc2nccc(Oc3ccc4c(c3)OCCN4C(=O)Nc3ccc(F)cc3)c2cc1OC :: > 200 µg/mL
COc1cc2nccc(Oc3ccc4c(c3)OCCN4C(=O)Nc3cccc(Cl)c3)c2cc1OC :: 120 µg/mL

Query: Requested read-out: solubility. Entry: `COc1cc2nccc(Oc3ccc4c(C(=O)Nc5ccc(C)cc5)cccc4c3)c2cc1OC`
Result: > 200 µg/mL

Query: Requested read-out: solubility. Entry: `COc1cc2nccc(Oc3ccc4c(c3)OCCN4C(=O)Nc3ccc(C)cc3)c2cc1OC`
Result: > 200 µg/mL

Query: Requested read-out: solubility. Entry: `COc1cc2nccc(Oc3ccc4c(c3)OCCN4C(=O)NC(C)C)c2cc1OC`
Result: > 200 µg/mL
